self-aminoacylation reference
Tested on: biotinyl-Phe-oxazolone
Experimental Protocol: self-aminoacylation, catalytic enhancement (BFO) (fold over background); higher = more active; k-Seq, kA / k0A0; sequences stand for … in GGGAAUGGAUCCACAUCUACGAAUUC…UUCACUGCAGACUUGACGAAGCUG
Fewer inactive variants are shown than the library holds.
Reply with the value as a number alone.

[[record]]
sequence_string = "CAGUGUGCUAAUAGUCGCAAG [Fam3.1 aminoacylation ribozyme variant]"
quantitative_result = 1.76

[[record]]
sequence_string = "AUUACUCUGGUCAUCGAGUGC [Fam2.1 aminoacylation ribozyme variant]"
quantitative_result = 0.969

[[record]]
sequence_string = "AUUCACCGAGCUCAUCGGGUG [Fam2.2 aminoacylation ribozyme variant]"
quantitative_result = 17.4

[[record]]
sequence_string = "CCACAGUUCACGCAAUCGGUC [Fam1B.1 aminoacylation ribozyme variant]"
quantitative_result = 3.2


[Q] Fill blank: measured self-aminoacylation of the sequence AAGUUUGGUAAAAGUCGCAAG [Fam3.1 aminoacylation ribozyme variant] is ____.
[A] 2.32

[Q] Fill blank: measured self-aminoacylation of the sequence CCACUUCAAACAAUCGGUUUG [Fam1A.1 aminoacylation ribozyme variant] is ____.
[A] 80.3

###

Test system: biotinyl-Ile-oxazolone
Experimental Protocol: self-aminoacylation, catalytic enhancement (BIO) (fold over background); higher = more active; k-Seq, kA / k0A0; sequences stand for … in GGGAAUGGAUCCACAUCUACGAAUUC…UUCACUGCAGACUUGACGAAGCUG
Fewer inactive variants are shown than the library holds.
Assay Readout: self-aminoacylation
Reply with the value as a number alone.

Answered cases to consult:
[[record]]
sequence_string = "AUUCACCGAGCUCAUCGGGUG [Fam2.2 aminoacylation ribozyme variant]"
assay_readout = "self-aminoacylation"
quantitative_result = 2.4

[[record]]
sequence_string = "AUUCACCUAAGUCUUCGGGUG [Fam2.2 aminoacylation ribozyme variant]"
assay_readout = "self-aminoacylation"
quantitative_result = 3.49


[Q] Fill blank: measured self-aminoacylation of the sequence CCACACUUCAGGCAAUCGGUU [Fam1B.1 aminoacylation ribozyme variant] is ____.
[A] 1.68

###

System: biotinyl-Phe-oxazolone
Experimental Protocol: self-aminoacylation, catalytic enhancement (BFO) (fold over background); higher = more active; k-Seq, kA / k0A0; sequences stand for … in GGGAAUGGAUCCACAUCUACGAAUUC…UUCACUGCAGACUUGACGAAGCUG
Fewer inactive variants are shown than the library holds.
self-aminoacylation reference
Reply with the value as a number alone.

[Q] Fill blank: measured self-aminoacylation of the sequence CCAGACUUCAAGCAAUCGAUC [Fam1B.1 aminoacylation ribozyme variant] is ____.
[A] 1.51

[Q] Fill blank: measured self-aminoacylation of the sequence CUACUUAAAACCAUCGGUCUG [Fam1A.1 aminoacylation ribozyme variant] is ____.
[A] 1.22

###

System: biotinyl-Met-oxazolone
Experimental Protocol: self-aminoacylation, catalytic enhancement (BMO) (fold over background); higher = more active; k-Seq, kA / k0A0; sequences stand for … in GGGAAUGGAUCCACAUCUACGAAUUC…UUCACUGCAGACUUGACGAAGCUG
This sample holds only a part of the variants without activity.
self-aminoacylation reference
Reply with the value as a number alone.

Answered cases to consult:
[[record]]
sequence_string = "AAGUAUGCUAAUCGUCGCAAG [Fam3.1 aminoacylation ribozyme variant]"
quantitative_result = 1.71

[[record]]
sequence_string = "CCACACUUUAAGCGAUCGGUC [Fam1B.1 aminoacylation ribozyme variant]"
quantitative_result = 1.16

[[record]]
sequence_string = "AAAUUUGCAAAUAGUCGCAAG [Fam3.1 aminoacylation ribozyme variant]"
quantitative_result = 1.35

[[record]]
sequence_string = "CCACACUUCAAGCCCUCGGUC [Fam1B.1 aminoacylation ribozyme variant]"
quantitative_result = 2.01


[Q] Enter reported self-aminoacylation observed with biotinyl-Met-oxazolone for CCACACUUAAAGCGAUCGGUC [Fam1B.1 aminoacylation ribozyme variant]
[A] 0.963

[Q] Enter reported self-aminoacylation observed with biotinyl-Met-oxazolone for GAGUUUGCUAACAGUCGCAAG [Fam3.1 aminoacylation ribozyme variant]
[A] 1.62

[Q] Enter reported self-aminoacylation observed with biotinyl-Met-oxazolone for CUACUUAAAACAAUCCGUCUG [Fam1A.1 aminoacylation ribozyme variant]
[A] 0.876

[Q] Enter reported self-aminoacylation observed with biotinyl-Met-oxazolone for AUUCACCGAGGUCAUGGGGUG [Fam2.2 aminoacylation ribozyme variant]
[A] 11.4

[Q] Enter reported self-aminoacylation observed with biotinyl-Met-oxazolone for CCACACUGCAAGCAAUCGGUA [Fam1B.1 aminoacylation ribozyme variant]
[A] 2.16

From: the supplement of paper PMC9233669
